Test: in vitro
Conditions: human
MEASUREMENT KIND: IC50 at 48 h

Exercise: Which IC50 at 48 h is reported for this compound? C=C(C)[C@@H](CC=C(C)C)C[C@@]12C[C@@H](CC=C(C)C)C(C)(C)[C@@](CC=C(C)C)(C(=O)C(C(=O)c3ccc(O)c(O)c3)=C1O)C2=O [Compound 1a, Garcinol, reference compound]
Solution: 20 µM

---

Reported IC50 at 48 h values are given for each entry in this list.
Experiment: Cytotoxicity in LS-180 cells using MTT assay
Details: human
Please give a number only; it is taken to be in µM.

| COMPOUND | IC50 at 48 h, µM |
| --- | --- |
| CC(C)=CCOc1ccc(C(=O)C2=C3OC(C)(C)C(CC=C(C)C)CC34CC(CC=C(C)C)C(C)(C)C(CC=C(C)C)(C2=O)C4=O)cc1OCC=C(C)C (stereo not drawn) | 40 |

// next item, IC50 at 48 h requested
Exercise: Which IC50 at 48 h is reported for this compound? CC(C)=CC[C@H]1C[C@@]23C[C@@H](CC=C(C)C)C(C)(C)[C@@](CC=C(C)C)(C(=O)C(C(=O)c4ccc(O)c(O)c4)=C2OC1(C)C)C3=O [Compound 2a, Isogarcinol, reference compound]
Solution: 11
